- Tested on: SK-BR-3 cells
- PROTOCOL DESCRIPTION: Cell proliferation, Cell Titer Glo, checkerboard design
- Type: cell-based
- PROTOCOL CONDITIONS: Homo sapiens, 168 h; SK-BR-3, 7 days, ATRA alone, estimated; read-out: EC50, inhibition of cell growth
pEC50: −log10 of the molar value.
METRIC: pEC50

[ask] Need pEC50, item CC1=C(/C=C/C(C)=C/C=C/C(C)=C/C(=O)O)C(C)(C)CCC1 [ATRA, all-trans retinoic acid]
[reply] ~7.40
